Each recorded value in this set is attributed to patent US20180072804A1.

Target: monomeric cyno Tim3-ECD (cynomolgus)
Assay: ELISA on cynomolgus Tim3
value type: Inflexion point (ng/mL)
Give the value in ng/mL but do not write ng/mL after it.

# input Bench note: what Inflexion point did Tim3_0018MutNQ (antibody, V domains shown, made in HEK293; also called Tim3_0016 variant (0018) with HVR-L1 variant 1_NQ) VH: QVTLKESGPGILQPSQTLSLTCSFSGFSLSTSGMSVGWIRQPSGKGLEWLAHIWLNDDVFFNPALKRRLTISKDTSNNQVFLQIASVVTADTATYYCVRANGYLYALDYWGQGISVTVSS VL: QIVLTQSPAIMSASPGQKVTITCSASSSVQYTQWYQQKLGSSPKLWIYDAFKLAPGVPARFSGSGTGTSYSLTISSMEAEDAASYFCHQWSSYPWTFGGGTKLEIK show?
# output 10.8

# input Bench note: what Inflexion point did Tim3_0018MutNS (antibody, V domains shown, also called Tim3_0016 variant (0018) with HVR-L1 variant 2_NS) VH: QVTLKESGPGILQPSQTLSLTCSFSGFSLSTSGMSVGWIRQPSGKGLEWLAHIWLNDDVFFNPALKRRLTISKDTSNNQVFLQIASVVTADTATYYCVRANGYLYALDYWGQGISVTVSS VL: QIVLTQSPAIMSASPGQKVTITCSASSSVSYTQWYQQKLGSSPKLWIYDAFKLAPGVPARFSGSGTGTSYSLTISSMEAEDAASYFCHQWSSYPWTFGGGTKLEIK show?
# output 6.5

# input Bench note: what Inflexion point did Tim3_0016MutNS (antibody, V domains shown, also called Tim3_0016 with HVR-L1 variant 2_NS) VH: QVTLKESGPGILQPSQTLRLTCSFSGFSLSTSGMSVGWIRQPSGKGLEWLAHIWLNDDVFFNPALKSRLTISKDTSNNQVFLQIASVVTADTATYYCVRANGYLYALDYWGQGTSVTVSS VL: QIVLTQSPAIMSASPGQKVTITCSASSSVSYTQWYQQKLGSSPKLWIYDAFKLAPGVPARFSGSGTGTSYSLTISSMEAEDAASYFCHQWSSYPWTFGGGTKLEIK show?
# output 5.5

# input Bench note: what Inflexion point did Tim3_0016MutNQ (antibody, V domains shown, also called Tim3_0016 with HVR-L1 variant 1_NQ) VH: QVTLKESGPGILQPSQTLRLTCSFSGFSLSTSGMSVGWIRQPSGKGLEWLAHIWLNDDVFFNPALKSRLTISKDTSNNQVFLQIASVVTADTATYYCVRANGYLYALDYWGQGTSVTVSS VL: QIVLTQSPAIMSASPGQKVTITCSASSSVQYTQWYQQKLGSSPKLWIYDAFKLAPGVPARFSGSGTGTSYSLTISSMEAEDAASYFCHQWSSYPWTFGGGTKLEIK show?
# output 5.7
